- Experimental details: in vivo
- Test context: rat, 1 mg/kg
Quantity kind: half-life (h)

I: Nc1cccc(Sc2ccc(/C=C/C(=O)N3CCOCC3)c(C(F)(F)F)c2C(F)(F)F)c1
II: O=C(/C=C/c1ccc(Sc2cccc(N[C@H]3CC[C@@H](C(=O)O)CC3)c2)c(C(F)(F)F)c1C(F)(F)F)N1CCOCC1
III: CC(C)N1CCC(Nc2cccc(Sc3ccc(/C=C/C(=O)N4CCOCC4)c(C(F)(F)F)c3C(F)(F)F)c2)CC1
## Task Sort the entries above numerically by half-life, high end first. Write the labels out in the order the request specifies.
## Result III, I, II
(III: 7 h, I: 4.5 h, II: 1.8 h)
